Where do the numbers come from? From the RNAGym collection of RNA variant scans (doi:10.7554/elife.80360).

B1: HDV Ribozyme (parent)
chain: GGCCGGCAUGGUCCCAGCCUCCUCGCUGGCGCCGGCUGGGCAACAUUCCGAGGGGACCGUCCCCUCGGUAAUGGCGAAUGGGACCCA

# Variants of: B1
# ASSAY_PROCEDURE: self-cleavage, relative activity (ratio to wild type); higher = more cleavage; co-transcriptional

[
  {
    "MUT": "U47G C66G",
    "self-cleavage": 0.831
  },
  {
    "MUT": "G55A C85G",
    "self-cleavage": 0.962
  },
  {
    "MUT": "G54C G80C",
    "self-cleavage": 0.256
  },
  {
    "MUT": "G6A G74U",
    "self-cleavage": 0.104
  },
  {
    "MUT": "G39A U79C",
    "self-cleavage": 0.0723
  },
  {
    "MUT": "A8U G38A",
    "self-cleavage": 0.141
  },
  {
    "MUT": "G11U C58A",
    "self-cleavage": 0.326
  },
  {
    "MUT": "C62U C75A",
    "self-cleavage": 0.166
  },
  {
    "MUT": "A43C C85U",
    "self-cleavage": 0.475
  },
  {
    "MUT": "G59A G81C",
    "self-cleavage": 0.228
  },
  {
    "MUT": "U37C G54C",
    "self-cleavage": 1.13
  },
  {
    "MUT": "G6C A51U",
    "self-cleavage": 0.469
  },
  {
    "MUT": "U46A C48U",
    "self-cleavage": 0.739
  },
  {
    "MUT": "G2U C36G",
    "self-cleavage": 0.185
  },
  {
    "MUT": "G10A C49U",
    "self-cleavage": 0.831
  },
  {
    "MUT": "U79C A83C",
    "self-cleavage": 0.374
  },
  {
    "MUT": "G10U G11U",
    "self-cleavage": 0.344
  },
  {
    "MUT": "C21A U23C",
    "self-cleavage": 0.0755
  },
  {
    "MUT": "C41U C62A",
    "self-cleavage": 1.02
  },
  {
    "MUT": "C66A G73A",
    "self-cleavage": 0.63
  },
  {
    "MUT": "A8C C64A",
    "self-cleavage": 0.639
  },
  {
    "MUT": "C19G C58U",
    "self-cleavage": 0.0272
  },
  {
    "MUT": "C13U C84A",
    "self-cleavage": 0.911
  },
  {
    "MUT": "A16C C58U",
    "self-cleavage": 1.05
  },
  {
    "MUT": "A45G C84U",
    "self-cleavage": 0.658
  },
  {
    "MUT": "U23C G53C",
    "self-cleavage": 0.927
  },
  {
    "MUT": "C61A C85G",
    "self-cleavage": 0.988
  },
  {
    "MUT": "A8G G82A",
    "self-cleavage": 0.237
  },
  {
    "MUT": "G38A A83U",
    "self-cleavage": 0.13
  },
  {
    "MUT": "C62U U72A",
    "self-cleavage": 0.441
  },
  {
    "MUT": "A8G G34U",
    "self-cleavage": 0.429
  },
  {
    "MUT": "G17A G34A",
    "self-cleavage": 0.117
  },
  {
    "MUT": "U27C A42U",
    "self-cleavage": 0.475
  },
  {
    "MUT": "A43U A77G",
    "self-cleavage": 0.277
  },
  {
    "MUT": "C19U C49A",
    "self-cleavage": 0.0378
  },
  {
    "MUT": "G40U C75U",
    "self-cleavage": 0.271
  },
  {
    "MUT": "C48U C64G",
    "self-cleavage": 0.721
  },
  {
    "MUT": "G25A G76A",
    "self-cleavage": 0.203
  },
  {
    "MUT": "C18U C58G",
    "self-cleavage": 0.778
  },
  {
    "MUT": "U9A A87C",
    "self-cleavage": 1.04
  },
  {
    "MUT": "G38C G40C",
    "self-cleavage": 0.0405
  },
  {
    "MUT": "C41U G82C",
    "self-cleavage": 0.136
  },
  {
    "MUT": "U20G C26G",
    "self-cleavage": 0.196
  },
  {
    "MUT": "A42U A83C",
    "self-cleavage": 0.119
  },
  {
    "MUT": "C22G A78C",
    "self-cleavage": 0.131
  },
  {
    "MUT": "G2U G25A",
    "self-cleavage": 0.0391
  },
  {
    "MUT": "G59A G67A",
    "self-cleavage": 0.979
  },
  {
    "MUT": "C15G A56C",
    "self-cleavage": 0.739
  },
  {
    "MUT": "A56U C63G",
    "self-cleavage": 0.815
  },
  {
    "MUT": "C4G G73U",
    "self-cleavage": 0.086
  },
  {
    "MUT": "U12A G40A",
    "self-cleavage": 0.374
  },
  {
    "MUT": "G35A A83G",
    "self-cleavage": 0.258
  },
  {
    "MUT": "G38C C62A",
    "self-cleavage": 0.354
  },
  {
    "MUT": "U23G G40C",
    "self-cleavage": 0.135
  },
  {
    "MUT": "G17A C84G",
    "self-cleavage": 0.623
  },
  {
    "MUT": "C75A A83C",
    "self-cleavage": 0.181
  },
  {
    "MUT": "C22G C44U",
    "self-cleavage": 0.0361
  },
  {
    "MUT": "C64G U65G",
    "self-cleavage": 0.943
  },
  {
    "MUT": "C4U G67C",
    "self-cleavage": 0.739
  },
  {
    "MUT": "G40U U47C",
    "self-cleavage": 0.475
  },
  {
    "MUT": "G52U G55U",
    "self-cleavage": 0.822
  },
  {
    "MUT": "G59A G76C",
    "self-cleavage": 0.854
  },
  {
    "MUT": "C26A A83U",
    "self-cleavage": 0.796
  },
  {
    "MUT": "C19G G82A",
    "self-cleavage": 0.102
  },
  {
    "MUT": "G11C A70U",
    "self-cleavage": 0.399
  },
  {
    "MUT": "G31U G40C",
    "self-cleavage": 0.0519
  },
  {
    "MUT": "C32U C61A",
    "self-cleavage": 0.841
  }
]
